System: MYCN
Assay: 3' UTR reporter interaction score (median-centred robust z-score of log2 firefly/Renilla activity); higher = less repression of the 3' UTR reporter
Settings: HEK293T; 48 h
Kindly state 3' UTR reporter interaction score for each of the entries shown.
Write no unit; give the number alone.

May I ask what 3' UTR reporter interaction score has been recorded for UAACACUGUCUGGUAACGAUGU ?
-0.465

May I ask what 3' UTR reporter interaction score has been recorded for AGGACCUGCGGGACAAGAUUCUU ?
-0.207

May I ask what 3' UTR reporter interaction score has been recorded for CUAAUAGUAUCUACCACAAUAAA ?
0.604

May I ask what 3' UTR reporter interaction score has been recorded for UGUGACAGAUUGAUAACUGAAA ?
0.0393

May I ask what 3' UTR reporter interaction score has been recorded for AAAGACAUAGGAUAGAGUCACCUC ?
-0.0475

May I ask what 3' UTR reporter interaction score has been recorded for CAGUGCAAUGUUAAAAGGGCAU ?
1.42

May I ask what 3' UTR reporter interaction score has been recorded for AGUGGUUUUACCCUAUGGUAG ?
0.551

May I ask what 3' UTR reporter interaction score has been recorded for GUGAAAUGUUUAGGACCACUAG ?
-0.394

May I ask what 3' UTR reporter interaction score has been recorded for UAUUGCACUCGUCCCGGCCUC ?
1.3

May I ask what 3' UTR reporter interaction score has been recorded for AGGGGUGGUGUUGGGACAGCUCCGU ?
0.408

May I ask what 3' UTR reporter interaction score has been recorded for UGAUAUGUUUGAUAUAUUAGGU ?
0.278

May I ask what 3' UTR reporter interaction score has been recorded for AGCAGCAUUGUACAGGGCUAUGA ?
0.0597

May I ask what 3' UTR reporter interaction score has been recorded for UUGGUCCCCUUCAACCAGCUA ?
0.0097

May I ask what 3' UTR reporter interaction score has been recorded for GCUAGUCCUGACUCAGCCAGU ?
0.0989

May I ask what 3' UTR reporter interaction score has been recorded for UCCGAGCCUGGGUCUCCCUCU ?
-0.731

May I ask what 3' UTR reporter interaction score has been recorded for UUCAAGUAAUCCAGGAUAGGC ?
-0.368

May I ask what 3' UTR reporter interaction score has been recorded for AGGCGGGGCGCCGCGGGACCGC ?
-0.386

May I ask what 3' UTR reporter interaction score has been recorded for UGAGUUGGCCAUCUGAGUGAG ?
-3.35

May I ask what 3' UTR reporter interaction score has been recorded for CAACCUGGAGGACUCCAUGCUG ?
0.831

May I ask what 3' UTR reporter interaction score has been recorded for GGCUGGCUCGCGAUGUCUGUUU ?
0.967

May I ask what 3' UTR reporter interaction score has been recorded for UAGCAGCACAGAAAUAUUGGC ?
-0.51

May I ask what 3' UTR reporter interaction score has been recorded for AAGCAGCUGCCUCUGAGGC ?
0.924

May I ask what 3' UTR reporter interaction score has been recorded for UGGUUGACCAUAGAACAUGCGC ?
1.49

May I ask what 3' UTR reporter interaction score has been recorded for UGACAACUAUGGAUGAGCUCU ?
0.478

May I ask what 3' UTR reporter interaction score has been recorded for AUUCUAAUUUCUCCACGUCUUUG ?
0.587

May I ask what 3' UTR reporter interaction score has been recorded for AAAGUGCAUCCUUUUAGAGGUUU ?
0.904

May I ask what 3' UTR reporter interaction score has been recorded for AUCGCUGCGGUUGCGAGCGCUGU ?
0.0647

May I ask what 3' UTR reporter interaction score has been recorded for GCCCCUGGGCCUAUCCUAGAA ?
0.221

May I ask what 3' UTR reporter interaction score has been recorded for UUCACAGGGAGGUGUCAUUUAU ?
1.06

May I ask what 3' UTR reporter interaction score has been recorded for AACCAGCACCCCAACUUUGGAC ?
0.781

May I ask what 3' UTR reporter interaction score has been recorded for CUCUAGAGGGAAGCACUUUCU ?
-0.174

May I ask what 3' UTR reporter interaction score has been recorded for AGGGCCCCCCCUCAAUCCUGU ?
-0.0892

May I ask what 3' UTR reporter interaction score has been recorded for UUGGCCACAAUGGGUUAGAAC ?
0.113
